Values compiled from PubChem BioAssay (NCI).

test system: UACC-62 melanoma; assay: NCI-60 one-dose screen, 48 h (100 = growth as untreated, 0 = no growth, -100 = all killed); settings: 10 µM
About 83,000 compounds went through this panel and 20% of them were active in at least one assay; those are over-represented in the sample as a whole.

Compound: Cc1cc(O)c(C2=NN(c3ccc(S(N)(=O)=O)cc3)C(c3ccc(N(C)C)cc3)C2)c(C)c1Cl (stereo not drawn)
Value unit: %
growth: 64.8
//
Compound: CC1(C)CNC(=O)N1
Value unit: %
growth: 95.9
//
Compound: CCc1ccc(-c2nnc(COc3ccc(-c4nc5cc(Cl)c(Cl)cc5[nH]4)cc3OC)o2)cc1
Value unit: %
growth: 78.8
//
Compound: COc1ccc(-c2nnc(COc3ccc(NC(=O)Nc4ccccc4)cc3F)o2)cc1
Value unit: %
growth: 78
//
Compound: O=C(c1ccc(Cl)cc1)c1no[n+]([O-])c1C(=O)c1ccc(Cl)cc1
Value unit: %
growth: 118
//
Compound: O=C(NNC(=O)c1ccncc1)Nc1ccc([N+](=O)[O-])cc1
Value unit: %
growth: 113
//
Compound: CCc1nn2c(-c3ccccc3)c(-c3cc(OC)c(OC)c(OC)c3)nc2s1
Value unit: %
growth: 71.8
//
Compound: COc1cc(-c2cc(-c3cc(OC)c(OC)c(OC)c3)nc3nc(N)[nH]c(=O)c23)ccc1Oc1ccnc2cc(Cl)ccc12
Value unit: %
growth: 49.8
//
Compound: COc1ccc(-c2nsc3c2NC(=O)CC3c2ccc(Cl)cc2)cc1 (stereo not drawn)
Value unit: %
growth: 73.4
//
Compound: Cc1ccc(C2C=C(c3ccc(Cl)cc3)N=C3SC=CN32)c(Br)c1 (stereo not drawn)
Value unit: %
growth: 83.3
//
Compound: COc1cc(CSc2nc3ccc(C)cc3c(=O)n2-c2ccccc2)cc(OC)c1OC
Value unit: %
growth: 20.8
//
Compound: COc1ccc(-c2nnc(COc3ccc(NC(=O)Nc4cccc(C(F)(F)F)c4)cc3F)o2)cc1
Value unit: %
growth: 17.1
//
Compound: Cn1c([N+](=O)[O-])cnc1/C=C1\Oc2ccc(Br)cc2C1=O
Value unit: %
growth: -73.7
//
Compound: COc1cc(C2C=C(c3ccc(Cl)cc3)N=C3SC(C)=CN32)cc(OC)c1OC (stereo not drawn)
Value unit: %
growth: 85.5
//
Compound: O=C(O)CNS(=O)(=O)c1ccc(OCCOc2ccc(S(=O)(=O)NCC(=O)O)cc2)cc1
Value unit: %
growth: 102
//
Compound: C[N+]1(CC2CO2)CCCCCC1 (stereo not drawn)
Value unit: %
growth: 102
//
Compound: CC(CNC(Cc1ccccc1)c1ccccc1)NC(Cc1ccccc1)c1ccccc1 (stereo not drawn)
Value unit: %
growth: 61.4
//
Compound: CCCCCCN=C(N)CCCCCCCCCCC(N)=NCCCCCC
Value unit: %
growth: 40.9
//
Compound: O=C1CC(c2cccc(-c3cccnc3)c2)=Nc2ccc(Br)cc2N1
Value unit: %
growth: 47.3
//
Compound: COc1ccc(C(=O)n2nc(CC(=O)NCc3ccccc3)nc2N)cc1
Value unit: %
growth: 93
//
Compound: Cc1cc(C)c(C(=O)OC(C)CNC2CCCCC2)c(C)c1 (stereo not drawn)
Value unit: %
growth: 103
//
Compound: CCOC(=O)Cn1nnc(-c2ccc(OCc3ccccc3F)cc2)n1
Value unit: %
growth: 81.4
//
Compound: Cc1cc(Nc2cccc(F)c2)nc(NCc2ccccc2)n1
Value unit: %
growth: 16.7
//
Compound: Nc1cc(O)cc(O)c1
Value unit: %
growth: 94.7
//
Compound: COc1cccc(-c2nnc(COc3ccc(-c4nc5ccccc5[nH]4)cc3OC)o2)c1
Value unit: %
growth: 95.1
//
Compound: O=c1oc2c3ccc4cnccc4c3[nH]c2c2ccccc12
Value unit: %
growth: 73.2
//
Compound: Cc1ccc(C)c2c1sc1nc3n[nH]c(N)c3c(=N)n12
Value unit: %
growth: 108
//
Compound: CCOc1nc(-c2ccccc2)cc2c(O)c(C(=O)NC(C)C)[nH]c(=O)c12
Value unit: %
growth: 105
//
Compound: COc1ccc(-c2oncc2-c2cc(OC)c3c(c2)OCO3)cc1
Value unit: %
growth: 50.7
//
Compound: COc1cc(C2c3cc4c(cc3C(O)C(CO)C2CO)OCO4)cc(OC)c1OC (stereo not drawn)
Value unit: %
growth: 40.8
//
Compound: COCCNCC(O)Cn1c2ccc(Cl)cc2c2cc(Cl)ccc21 (stereo not drawn)
Value unit: %
growth: -73.3
//
Compound: COc1ccccc1S(=O)(=O)Nc1ccc2c(c1)CN(C)C(=O)N2
Value unit: %
growth: 29.3
//
Compound: CCC(O)c1ccc(Br)cc1NC(=O)c1cccc(Cl)c1 (stereo not drawn)
Value unit: %
growth: -27.5
//
Compound: C[C@H](NC(=O)[C@@H]1CSSC[C@@H](NC(=O)Cc2nc3ccccc3cc2O)C(=O)NCC(=O)N1C)c1ccccc1
Value unit: %
growth: 77.9
//
Compound: Cc1nc(Nc2nc3ccccc3o2)nc(-c2cccc([N+](=O)[O-])c2)c1C(=O)Nc1ccc(F)c(Cl)c1
Value unit: %
growth: 17.1
//
Compound: Cc1cc(C)c2nc(C)c(C)[n+]([O-])c2c1
Value unit: %
growth: 105
//
Compound: O=C(COCc1c(-c2ccccc2)no[n+]1[O-])Nc1nc(-c2ccc(Cl)cc2)cs1
Value unit: %
growth: 99.6
//
Compound: Clc1ccc(-c2nc(-c3cccs3)cn3ccnc23)cc1
Value unit: %
growth: 60.2
//
Compound: C[C@@H]1N=C(c2ccc(Br)cc2)Nc2nc3ccccn3c2C1=O
Value unit: %
growth: 49.2
//
Compound: Cc1cc(C(C)(C)CC(C)(C)C)ccc1OCCOCC[N+](C)(C)Cc1ccccc1
Value unit: %
growth: -91.9
//
Compound: CC(=O)Oc1ccc(C2=Cc3ccc(OC(C)=O)cc3OC2C)cc1 (stereo not drawn)
Value unit: %
growth: 45
//
Compound: COc1cc(C(=O)n2nc(N)c3c(C)cc(C)nc32)cc(OC)c1OC
Value unit: %
growth: 80.5
//
Compound: COc1ccc(/C(=C/c2cc(OC)c(OC)cc2[N+](=O)[O-])C(=O)O)cc1
Value unit: %
growth: 106
